- TEST METHOD NOTES: Acute toxicity in ip dosed ddY mouse measured after 72 hrs
- Assay type: organism-based
- STATED CONDITIONS: in vivo
PROPERTY: LD50 at 72 h (mg/kg)
Response body: numeric value in mg/kg, unit text excluded.

Solved entries:
Find the recorded LD50 at 72 h belonging to Cn1ncc(N2CCOCC2)c(Cl)c1=O and report it.
75

Try this compound next: COc1c(N2CCOCC2)cnn(C)c1=O
600

Also, CCOc1c(N2CCOCC2)cnn(C)c1=O [EMORFAZONE] please.
700

Same for Cc1c(N(C)C)c(=O)n(-c2ccccc2)n1C [AMINOPYRINE]
420

Next record, please: CCOc1c(NC)cnn(C)c1=O
400

Further cases:
Fill in: LD50 at 72 h of CCCOc1c(N2CCOCC2)cnn(C)c1=O is ___
500

Please do the same for CCOc1c(N(C)C)cnn(C)c1=O as well.
305

Likewise for C=CCn1ncc(N2CCOCC2)c(OCC)c1=O ?
550

====

- Test system: Mus musculus
- TEST METHOD NOTES: Analgesic activity in sc dosed ddY mouse assessed as inhibition of acetic acid-induced abdominal stretching pretreated for 30 mins followed by acetic acid challenge measured for 5 to 20 mins
- Format: functional
- STATED CONDITIONS: Abdomen
PROPERTY: ED50 (mg/kg)
Answer format: numeric, mg/kg implied, no suffix.

Any idea what ED50 came out for CCCCCOc1c(N2CCOCC2)cnn(C)c1=O on Mus musculus?
29

What do we get for COc1c(N2CCOCC2)cnn(C)c1=O ?
72

Thanks! And CCOc1c(N2CCCCC2)cnn(C)c1=O ?
86

What do we get for C=CCn1ncc(N2CCOCC2)c(OCC)c1=O ?
18

# repeat for C=CCN(CC=C)c1cnn(C)c(=O)c1OCC
82

And for C=CCOc1c(N2CCOCC2)cnn(C)c1=O ?
90

CCOc1c(N2CCN(C)CC2)cnn(C)c1=O ?
82

Note, next up: CCOc1c(NC)cnn(C)c1=O
55

====

- Test system: Mus musculus
- TEST METHOD NOTES: Analgesic activity in sc dosed ddY mouse assessed as inhibition of acetic acid-induced abdominal stretching pretreated for 30 mins followed by acetic acid challenge measured for 5 to 20 mins
- Assay type: functional
- STATED CONDITIONS: Abdomen
PROPERTY: ED50 (mg/kg)
Give the value in mg/kg but do not write mg/kg after it.

Solved cases (4 shown):
# query: ED50 of entry CCOc1c(N2CCOCC2)cnn(C)c1=O [EMORFAZONE]
41

And the next one, CCOc1c(N(C)C)cnn(C)c1=O ?
86

Moving on to the next molecule: CCOc1c(N2CCOCC2)cnn(CC)c1=O
95

Please give the result for CC(C)Oc1c(N2CCOCC2)cnn(C)c1=O too.
86

// moving on: another record for ED50
Which measured ED50 value corresponds to CCCNc1cnn(C)c(=O)c1OCC ?
72

====

- Tested on: Mus musculus
- TEST METHOD NOTES: Analgesic activity in sc dosed ddY mouse assessed as inhibition of acetic acid-induced abdominal stretching pretreated for 30 mins followed by acetic acid challenge measured for 5 to 20 mins
- Assay type: functional
- STATED CONDITIONS: Abdomen
Label key: condition met means ED50 under 50 mg/kg; condition not met means ED50 of 50 mg/kg or more.

See these solved cases before continuing.
Bench note: check whether CCOc1c(N(CC)CC)cnn(C)c1=O shows ED50 below 50 mg/kg
condition not met

Try CCCCOc1c(N2CCOCC2)cnn(C)c1=O next.
condition met

CCOc1c(Nc2ccccc2)cnn(C)c1=O ?
condition met

Let us now turn to CCOc1c(N2CCOCC2)cnn(C(C)C)c1=O
condition not met

Now give it for C/C=C/n1ncc(N2CCOCC2)c(OCC)c1=O too.
condition not met

New cases:
Field: below-cutoff. Rule: recorded ED50 strictly less than 50 mg/kg. Subject: Cn1ncc(N2CCOCC2)c(Cl)c1=O
condition met

Try this molecule next: CCCOc1c(N2CCOCC2)cnn(C)c1=O
condition met

Now the same for Cn1ncc(Cl)c(Cl)c1=O
condition not met

Also, Cn1ncc(N2CCOCC2)cc1=O please.
condition not met
